Target system: T1, bacterially produced human IL-6 (human, UniProt P05231 30-212)
T1 construct: also called bactIL-6; prokaryotic IL-6
Test protocol: SPR; periplasmic fraction
Each item that follows carries a reported koff.
Observable: koff (s⁻¹)

>>> number("Fab 47C2 (Fab, V domains shown, VL-shuffled Fab of 29B11, periplasmic fraction; also called 47C2 (R4)) VH: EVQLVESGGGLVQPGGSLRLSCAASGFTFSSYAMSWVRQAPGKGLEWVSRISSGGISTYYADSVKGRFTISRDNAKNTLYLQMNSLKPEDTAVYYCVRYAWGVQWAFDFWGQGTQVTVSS VL: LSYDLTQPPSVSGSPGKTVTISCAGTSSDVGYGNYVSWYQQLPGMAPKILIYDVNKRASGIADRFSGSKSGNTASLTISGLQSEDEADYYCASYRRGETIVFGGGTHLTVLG")
0.000315
>>> number("Fab 55C1 (Fab, V domains shown, VL-shuffled Fab of 29B11, periplasmic fraction; also called 55C1a) VH: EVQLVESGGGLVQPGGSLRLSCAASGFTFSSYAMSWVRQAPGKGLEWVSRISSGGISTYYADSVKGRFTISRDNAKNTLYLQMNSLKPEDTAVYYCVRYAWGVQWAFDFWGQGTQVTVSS VL: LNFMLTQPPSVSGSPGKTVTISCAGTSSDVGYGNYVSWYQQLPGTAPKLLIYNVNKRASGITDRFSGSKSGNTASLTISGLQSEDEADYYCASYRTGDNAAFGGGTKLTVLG")
"7.38e-05"
>>> number("Fab 55E2 (Fab, V domains shown, VL-shuffled Fab of 29B11, periplasmic fraction; also called 55E2b) VH: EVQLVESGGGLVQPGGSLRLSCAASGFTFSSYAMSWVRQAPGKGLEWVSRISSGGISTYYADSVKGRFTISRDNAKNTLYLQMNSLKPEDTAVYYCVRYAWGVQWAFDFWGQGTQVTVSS VL: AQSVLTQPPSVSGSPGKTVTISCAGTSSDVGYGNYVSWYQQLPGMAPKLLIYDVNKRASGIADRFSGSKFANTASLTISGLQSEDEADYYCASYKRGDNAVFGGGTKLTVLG")
"6.72e-05"
